Reference source: patent US20240376189A1

- assayed.system: T1, human C5a (human, UniProt P01031 678-751, biotinylated in the U937/C5aR ligand blocking assay (site not stated))
- T1 construct: also called human antigen; huC5a
- T1 sequence: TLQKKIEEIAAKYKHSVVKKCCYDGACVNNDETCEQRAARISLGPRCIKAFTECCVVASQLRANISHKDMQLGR
- test: SPR, scFv captured via anti-c-myc/anti-His, 5 nM human antigen as analyte, 1:1 fit
outcome.measure: koff (s⁻¹)

[[record]]
binder = "11A11 (scFv, V domains shown, Combination mutant scFv) VH: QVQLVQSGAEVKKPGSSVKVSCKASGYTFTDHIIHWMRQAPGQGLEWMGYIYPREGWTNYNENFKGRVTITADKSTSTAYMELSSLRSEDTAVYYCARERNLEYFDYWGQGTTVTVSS VL: DIVLTQSPASLAVSPGQRATITCKASQSVDFEGFNYMNWYQQKPGQPPKLLIYATSNLDSGVPARFSGSGSGTDFTLTINPVEAEDTANYYCQQSVEDPHTFGGGTKVEIK"
inequality_symbol = "<"
assay_result = "1e-05"

[[record]]
binder = "16D10 scFv (scFv, V domains shown) VH: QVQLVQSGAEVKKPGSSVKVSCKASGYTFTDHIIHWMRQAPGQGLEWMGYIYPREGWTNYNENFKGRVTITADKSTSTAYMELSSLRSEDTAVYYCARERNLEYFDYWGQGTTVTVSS VL: DIVLTQSPASLAVSPGQRATITCKASQSVDYEGFNYMNWYQQKPGQPPKLLIYAASNLDSGVPARFSGSGSGTDFTLTINPVEAEDTANYYCQQSNEDPYTFGGGTKVEIK"
inequality_symbol = "="
assay_result = "2.34e-05"

